TARGET_SYSTEM: CHO-CHOP luciferase reporter, UPR activation, luminescence
EXPERIMENT_NOTES: CHOP reporter induction, apoptotic UPR branch – CHO-CHOP cells, luciferase luminescence, confirmation (AID 489024);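 also: compounds added alone to reporter cells with no tunicamycin stress co-treatment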
Activity calls are given as the source filed them.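 The calls were made as follows: active = compounds whose mean EC50, the dose giving half the maximal reporter activation, is at or below a set limit; inactive = the rest.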
Permitted responses: active, inactive

Assay result, entry `C[C@@H](NC(=O)c1coc(=O)c(Br)c1)c1ccccc1` — outcome? active

Now the same for `Cc1nc2ccccc2n1-c1nc(-c2ccco2)cc(C(F)(F)F)n1` active

Moving on to the next compound: `CCCCCCCCCn1c2c(c(=N)c3c1CCC3)CCCC2` active

Check `Cc1cccc(C)c1NC(=O)c1nc(S(=O)(=O)Cc2ccccc2)ncc1Cl` too. active

Item: `COC(=O)Oc1ccc(/C=C/C(=O)OC(C)C)cc1OC(=O)OC` active

Entry to check: `CCOC(=O)c1c(CSC(=N)N)n(-c2ccc(C)cc2)c2cc(Br)c(OC(C)=O)cc12` inactive

----------
TARGET_SYSTEM: CHO-CHOP luciferase reporter, UPR activation, luminescence
EXPERIMENT_NOTES: CHOP reporter induction, apoptotic UPR branch – CHO-CHOP cells, luciferase luminescence, confirmation (AID 489024);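 also: compounds added alone to reporter cells with no tunicamycin stress co-treatment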
Calls of active or inactive are those of the source.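 The calls were made as follows: active = compounds whose mean EC50, the dose giving half the maximal reporter activation, is at or below a set limit; inactive = the rest.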
Hi there, use one of these labels in your reply, thanks! active, inactive

CHEM_SMILES | CLASS_LABEL
COc1ccc(-c2cc(=O)oc3c(C)c(OC(=O)c4cccs4)ccc23)cc1 | inactive
CC(C)c1nnc(NC(=O)CCS(=O)(=O)c2nc(-c3cccs3)cc(C(F)(F)F)n2)s1 | active
Cc1ccc(-c2nnc(-c3ccc(NC(=O)c4cccs4)cc3)o2)cc1 | active

Here is another compound to look at.
Recorded call for `COc1cc([C@H]2c3[nH]c4ccccc4c3C[C@H]3C(=O)N4[C@@H](c5cc(OC)c(OC)c(OC)c5)c5[nH]c6ccccc6c5C[C@H]4C(=O)N23)cc(OC)c1OC` ? active

----------
TARGET_SYSTEM: CHO-CHOP luciferase reporter, UPR activation, luminescence
EXPERIMENT_NOTES: CHOP reporter induction, apoptotic UPR branch – CHO-CHOP cells, luciferase luminescence, confirmation (AID 489024);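 also: compounds added alone to reporter cells with no tunicamycin stress co-treatment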
Activity calls are given as the source filed them.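 Rule for the calls: active = compounds whose mean EC50, the dose giving half the maximal reporter activation, is at or below a set limit; inactive = the rest.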
I would appreciate it if you answered using one of these outcomes: label 1 for active, label 0 for inactive

MOLECULE | CLASS_LABEL
CC(C)(C)C(=O)NC(=S)NNC(=O)c1ccc(-c2ccccc2)cc1 | label 1
COc1ccc(/C=N/Nc2cc(C)nc(-n3nc(C)cc3C)n2)cc1 | label 1
Cc1cc(C(=O)CCl)c(C)n1CCc1ccccc1 | label 1

Fill in: this test's call for `COc1ccccc1N1C(=O)C=C(Sc2nc(C)cc(C)n2)C1=O` is ___ label 0

Would you kindly repeat that for `COc1ccc(N2C(=O)/C(=C/C=C/c3ccccc3[N+](=O)[O-])C(=O)NC2=S)cc1` ? label 0

Could you do the same for `Cc1ccc(C)c(N=Cc2c(O)c3ccccc3oc2=O)c1` , please? label 1

Let us now turn to `O=C1NC(=O)N(c2ccccc2)C(=O)/C1=C/C=C/c1ccco1` label 1

Input Cc1cc(C)c(C(CC(=O)c2cccs2)C(C#N)C#N)c(C)c1 (stereo unspecified) label 1

----------
TARGET_SYSTEM: CHO-CHOP luciferase reporter, UPR activation, luminescence
EXPERIMENT_NOTES: CHOP reporter induction, apoptotic UPR branch – CHO-CHOP cells, luciferase luminescence, confirmation (AID 489024);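 also: compounds added alone to reporter cells with no tunicamycin stress co-treatment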
Active and inactive are the calls of the source.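 The calls were made as follows: active = compounds whose mean EC50, the dose giving half the maximal reporter activation, is at or below a set limit; inactive = the rest.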
Log the outcome using a class from active, inactive

Would you please look over these solved cases?
COMPOUND | TARGET_SYSTEM | CLASS_LABEL
Cn1c(/C=C/c2ccc([N+](=O)[O-])o2)nc2ccccc2c1=O | CHO-CHOP luciferase reporter, UPR activation, luminescence | active
Cc1cc(C)nc(S/C=C/C(=O)c2ccccc2)n1 | CHO-CHOP luciferase reporter, UPR activation, luminescence | active
CN(C)C(=O)CSc1cccc2cccnc12 | CHO-CHOP luciferase reporter, UPR activation, luminescence | active
COc1ccc2c(c1)CCc1c(C(=O)Nc3cc(C)n(Cc4ccc(Cl)cc4)n3)noc1-2 | CHO-CHOP luciferase reporter, UPR activation, luminescence | active
Cc1ccc(C)c(NC(=S)c2ccccn2)c1 | CHO-CHOP luciferase reporter, UPR activation, luminescence | inactive

Fill in: this test's call for `COc1cc2nc(=S)n3[nH]c(CCn4nc(C)cc4C)nc3c2cc1OC` is ___ active

Input `COc1ccc(/C=C\c2nc(=O)c3ccccc3o2)cc1` active

Note, next up: `CN1/C(=C\C(=O)COC(=O)c2ccc(O)c(O)c2)C(C)(C)c2ccccc21` active

Item: `S=C1SCN(Cc2ccco2)CN1Cc1ccco1` active
